Test system: Calreticulin
Assay: FACS analysis of expression level of calreticulin on tumor cell surface
Type: cell-based, Human
Settings: Toledo cells, 12 hours, 0.008 uM
Values of Mean Fluorescence Intensity (MFI) Calreticulin greater than or equal to 70 map to MET; values below map to NOT MET.

Molecule: CC1(C)CCC(CN2CCN(c3ccc(C(=O)NS(=O)(=O)c4ccc(NCC5CCOCC5)c([N+](=O)[O-])c4)c(Oc4cnc5[nH]ccc5c4)c3)CC2)=C(c2ccc(Cl)cc2)C1 [Venetoclax]
Discrete Label: MET

Molecule: Nc1ncn([C@@H]2O[C@H](CO)[C@@H](O)[C@H]2O)c(=O)n1 [Azacitidine]
Discrete Label: NOT MET

Where these numbers come from: patent US20230174649A1
